Value source: patent US20230357348A1

Measured Target: human glucagon receptor (human, UniProt P47871 26-477)
Sequence (P47871 26-477): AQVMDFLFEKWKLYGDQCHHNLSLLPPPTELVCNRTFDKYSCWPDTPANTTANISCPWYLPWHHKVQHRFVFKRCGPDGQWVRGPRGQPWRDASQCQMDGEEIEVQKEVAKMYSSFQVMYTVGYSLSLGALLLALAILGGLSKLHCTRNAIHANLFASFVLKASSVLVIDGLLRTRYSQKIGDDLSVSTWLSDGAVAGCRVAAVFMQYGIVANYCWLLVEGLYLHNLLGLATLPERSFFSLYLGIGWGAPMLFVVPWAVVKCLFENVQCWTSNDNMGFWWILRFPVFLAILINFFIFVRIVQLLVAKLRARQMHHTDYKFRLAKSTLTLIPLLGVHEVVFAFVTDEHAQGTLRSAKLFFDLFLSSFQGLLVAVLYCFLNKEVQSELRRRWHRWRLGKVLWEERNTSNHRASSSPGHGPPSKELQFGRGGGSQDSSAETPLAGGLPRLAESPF
Assay Protocol: cell-based or functional assay
Starred links: 1 amine or outer side, 2 acyl side, 3 side chain; linkers in the order of their positions; H or OH if unused. Non-standard residues stand in square brackets, D forms with d. Groups on a side chain read outwards from the residue. No end group written: not given here. *: point of attachment. C20 diacid = O=C(O)CCCCCCCCCCCCCCCCCCC(=O)*; C18 diacid = O=C(O)CCCCCCCCCCCCCCCCC(=O)*; γGlu = O=C(O)[C@H](CCC(=O)[*:2])N[*:1]; αMeF = C[C@](N)(Cc1ccccc1)C(=O)O; (PEG)2 = polyethylene glycol 2; PEG4 = NCCOCCOCCOCCOCCC(=O)O; AEEA = NCCOCCOCC(=O)O; Aib = CC(C)(N)C(=O)O
Where hGluc-R EC50 (pM), cAMP equals or exceeds 100 pM, the correct label is rule met; where it does not, the label is rule not met.

# Binder, Class Name
records = [
    ("H[Aib]HGS[αMeF]TSDVSK[αMeF]LDSRAAK([AEEA-γGlu-γGlu-C18 diacid])D[αMeF]VQ[Aib]IANT-NH2 [Peptide 274]", "rule not met"),
    ("H[Aib]HGS[αMeF]TSDVSK[αMeF]LDSRAAK([(PEG)2-(PEG)2-γGlu-γGlu-C20 diacid])D[αMeF]VQ[Aib]IANT-NH2 [Peptide 264]", "rule met"),
    ("H[Aib]HGS[αMeF]TSDVSK[αMeF]LDSRAAK([PEG4-γGlu-C20 diacid])D[αMeF]VQ[Aib]IANT-NH2 [Peptide 267]", "rule met"),
    ("H[Aib]HGS[αMeF]TSDVSK[αMeF]LDSRAAK([PEG4-γGlu-γGlu-C18 diacid])D[αMeF]VQ[Aib]IANT-NH2 [Peptide 263]", "rule not met"),
]

Given H[Aib]HGS[αMeF]TSDVSK[αMeF]LDSRAAK([AEEA-γGlu-AEEA-γGlu-C20 diacid])D[αMeF]VQ[Aib]IANT-NH2 [Peptide 266] , state whether its hGluc-R EC50 (pM), cAMP is at least 100 pM.
rule met
